measurement_label: pKi
The quantity pKi is defined as the negative base-10 logarithm of the molar concentration.

Query string: Output reported pKi of the molecule O=C(CN1C(=O)CSC1=O)c1cc2cc(Br)ccc2oc1=O on hCA XII (Homo sapiens, UniProt O43570).
Sequence (O43570 25-354): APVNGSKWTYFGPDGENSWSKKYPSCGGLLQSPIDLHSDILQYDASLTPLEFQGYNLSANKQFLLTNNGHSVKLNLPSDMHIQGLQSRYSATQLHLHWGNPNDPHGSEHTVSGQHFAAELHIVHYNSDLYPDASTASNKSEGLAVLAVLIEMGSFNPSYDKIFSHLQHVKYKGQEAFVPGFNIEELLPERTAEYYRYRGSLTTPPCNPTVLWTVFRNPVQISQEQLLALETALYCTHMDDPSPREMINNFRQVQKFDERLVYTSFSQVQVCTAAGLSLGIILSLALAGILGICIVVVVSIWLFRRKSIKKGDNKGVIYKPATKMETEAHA
Result string: 6.51

Query string: Jot down pKi (hCA XII (Homo sapiens, UniProt O43570)) of O=C(CN1C(=O)SC(=Cc2ccc([N+](=O)[O-])cc2)C1=O)c1cc2cc(Br)ccc2oc1=O [10l] .
Result string: 4.98

Query string: Please indicate recorded pKi of Cc1ccc(C=C2SC(=O)N(CC(=O)c3cc4ccccc4oc3=O)C2=O)o1 [11b] measured with hCA XII (Homo sapiens, UniProt O43570).
Result string: 5.96

Query string: // output pKi; input O=C(CN1C(=O)SC(=Cc2ccccc2)C1=O)c1cc2ccccc2oc1=O [10a] ; system hCA XII (Homo sapiens, UniProt O43570)
Result string: 6.12

Query string: Report the value of pKi obtained on hCA XII (Homo sapiens, UniProt O43570) for O=C(CN1C(=O)SC(=Cc2ccccc2Br)C1=O)c1cc2ccccc2oc1=O [10g] .
Result string: 5.39

Query string: State pKi on hCA XII (Homo sapiens, UniProt O43570). Entry: O=C(CN1C(=O)CSC1=O)c1cc2ccccc2oc1=O
Result string: 6.82

Query string: Enter pKi (test system hCA XII (Homo sapiens, UniProt O43570)) for Cc1ccc(C=C2SC(=O)N(CC(=O)c3cc4cc(Br)ccc4oc3=O)C2=O)o1 [11d]
Result string: 6.09

Query string: Tell me its pKi on hCA XII (Homo sapiens, UniProt O43570): O=C(CN1C(=O)SC(=Cc2ccc([N+](=O)[O-])cc2)C1=O)c1cc2ccccc2oc1=O [10e]
Result string: 5.10

Query string: Find the measured pKi of Cc1ccc(C=C2SC(=O)N(CC(=O)c3cc4cc(Br)ccc4oc3=O)C2=O)cc1 [10i] with hCA XII (Homo sapiens, UniProt O43570) as test system.
Result string: 5.64

====

- assayed_target: hCA XII (Homo sapiens)
# if measured Ki < 4 µM: Y  # else: N

Query string: Is it true that Ki reported for O=C(CN1C(=O)SC(=Cc2ccccc2Cl)C1=O)c1cc2cc(Br)ccc2oc1=O [10m] is less than 4 µM?
Result string: Y

Query string: Hello, is Ki of the following molecule strictly smaller than 4 µM? COc1ccc(OC)c(C=C2SC(=O)N(CC(=O)c3cc4ccccc4oc3=O)C2=O)c1 [10d]
Result string: N

Query string: I'd appreciate it if you could check whether O=C(CN1C(=O)SC(=Cc2ccccc2Cl)C1=O)c1cc2ccccc2oc1=O [10f] has Ki smaller than 4 µM.
Result string: Y

Query string: Is the reported Ki for O=C(CN1C(=O)SC(=Cc2ccccc2Br)C1=O)c1cc2cc(Br)ccc2oc1=O [10n] strictly below 4 µM?
Result string: Y

Query string: Here's an entry: COc1ccc(C=C2SC(=O)N(CC(=O)c3cc4ccccc4oc3=O)C2=O)cc1 [10c] . Is its Ki below 4 µM?
Result string: N

Query string: For this molecule, is Ki lower than 4 µM? O=C(CN1C(=O)SC(=Cc2cccs2)C1=O)c1cc2cc(Br)ccc2oc1=O [11c]
Result string: Y

Query string: Consider COc1ccc(OC)c(C=C2SC(=O)N(CC(=O)c3cc4cc(Br)ccc4oc3=O)C2=O)c1 [10k] . Does its Ki lie strictly below 4 µM?
Result string: N

Query string: Below 4 µM on Ki? Entry COc1ccc(C=C2SC(=O)N(CC(=O)c3cc4cc(Br)ccc4oc3=O)C2=O)cc1 [10j]
Result string: N

Query string: Is 4 µM strictly greater than the molecule's reported Ki? molecule: O=C(CN1C(=O)SC(=Cc2ccccc2)C1=O)c1cc2cc(Br)ccc2oc1=O [10h]
Result string: Y

Entry source: paper PMC8745369
